MEASURED_ON: PKR K410E (Homo sapiens, UniProt P30613, K410E)
Sequence (P30613 whole entry K410E): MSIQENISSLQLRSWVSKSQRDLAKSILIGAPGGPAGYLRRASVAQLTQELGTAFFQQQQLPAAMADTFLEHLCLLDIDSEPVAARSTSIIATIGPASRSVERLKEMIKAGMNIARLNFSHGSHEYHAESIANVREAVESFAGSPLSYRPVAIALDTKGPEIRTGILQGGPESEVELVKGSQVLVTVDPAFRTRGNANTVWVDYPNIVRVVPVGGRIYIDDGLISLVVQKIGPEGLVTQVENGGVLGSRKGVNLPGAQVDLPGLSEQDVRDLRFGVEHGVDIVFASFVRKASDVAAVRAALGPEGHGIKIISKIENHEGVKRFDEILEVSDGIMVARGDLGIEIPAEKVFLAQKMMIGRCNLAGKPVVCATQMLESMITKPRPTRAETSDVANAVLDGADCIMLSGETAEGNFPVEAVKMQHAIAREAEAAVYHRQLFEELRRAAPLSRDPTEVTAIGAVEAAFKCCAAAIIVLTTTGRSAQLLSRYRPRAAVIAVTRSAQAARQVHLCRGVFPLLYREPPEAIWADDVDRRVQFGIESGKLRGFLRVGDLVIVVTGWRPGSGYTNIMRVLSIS
EXPERIMENT: PKR mutant assay (K410E), AC50, LDH/NADH-coupled, absorbance at 340 nm
Type: biochemical
TEST_SETTINGS: Table 2; enzyme assay
READOUT_LABEL: AC50

Query: Fill in the recorded AC50 for this compound, with PKR K410E (Homo sapiens, UniProt P30613, K410E) as test system: CCOC(=O)c1cccc(Cn2ncc3c4sc(C)nc4n(C)c3c2=O)c1
Reply: > 0.8 µM

Query: Fill in the recorded AC50 for this compound, with PKR K410E (Homo sapiens, UniProt P30613, K410E) as test system: Cc1nc2c(s1)c1cnn(Cc3cccc(C(C)N)c3)c(=O)c1n2C (centres unmarked)
Reply: < 0.3 µM

Query: Fill in the recorded AC50 for this compound, with PKR K410E (Homo sapiens, UniProt P30613, K410E) as test system: Cn1c2nc(Cc3ccc(O)cc3)sc2c2cnn(Cc3cccc4[nH]ncc34)c(=O)c21
Reply: < 0.3 µM

Query: Fill in the recorded AC50 for this compound, with PKR K410E (Homo sapiens, UniProt P30613, K410E) as test system: COc1ccc(Cn2ncc3c4sc(C)nc4n(C)c3c2=O)cc1
Reply: < 0.3 µM

Query: Fill in the recorded AC50 for this compound, with PKR K410E (Homo sapiens, UniProt P30613, K410E) as test system: CC(=O)NCc1nc2c(s1)c1cnn(Cc3cccc4[nH]ncc34)c(=O)c1n2C
Reply: < 0.3 µM

Query: Fill in the recorded AC50 for this compound, with PKR K410E (Homo sapiens, UniProt P30613, K410E) as test system: Cn1c2nc(Cc3cc[nH]n3)sc2c2cnn(Cc3ccc(C(N)=O)cc3)c(=O)c21
Reply: > 0.8 µM

Continuing:
Query: Fill in the recorded AC50 for this compound, with PKR K410E (Homo sapiens, UniProt P30613, K410E) as test system: CNc1cccc(Cc2nc3c(s2)c2cnn(Cc4cccc5[nH]ncc45)c(=O)c2n3C)c1
Reply: < 0.3 µM

Query: Fill in the recorded AC50 for this compound, with PKR K410E (Homo sapiens, UniProt P30613, K410E) as test system: CSc1nc2c(s1)c1cnn(Cc3cccc(C(C)(C)O)c3)c(=O)c1n2C
Reply: 0.301 to 0.8 µM
